Some compounds, each annotated with its measured NADPH fluorescence slope.
# study_target: Voltage-gated potassium channel subunit beta-2 (Rattus norvegicus) (UniProt P62483)
# Sequence (P62483 whole entry, looked up): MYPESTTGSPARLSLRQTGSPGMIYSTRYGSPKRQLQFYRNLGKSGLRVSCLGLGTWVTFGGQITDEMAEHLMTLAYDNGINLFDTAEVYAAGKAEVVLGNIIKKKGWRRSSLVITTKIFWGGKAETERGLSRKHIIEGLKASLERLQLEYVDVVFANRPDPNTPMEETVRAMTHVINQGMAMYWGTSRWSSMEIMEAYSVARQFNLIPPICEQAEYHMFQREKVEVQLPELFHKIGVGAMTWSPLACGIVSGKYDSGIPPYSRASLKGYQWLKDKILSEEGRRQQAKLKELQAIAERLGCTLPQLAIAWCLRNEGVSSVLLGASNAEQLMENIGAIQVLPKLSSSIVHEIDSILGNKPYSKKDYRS
# assay_method_text: KvBeta positive modulators, primary screen, biochemical, NADPH fluorescence (AID 623);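 also: fluorescence intensity change per second fitted from 20 to 320 s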
# test_context: Recombinant KvBeta, NADPH fluorescence decrease slope, 10 min; at 10 µM; active compounds read low
Number only, please.

Recorded NADPH fluorescence slope, per entry:
compound	study_target	NADPH fluorescence slope
Cc1nc(SCC(=O)Nc2ccc3c(c2)OCO3)c(C#N)c2c1CCCC2	Voltage-gated potassium channel subunit beta-2 (Rattus norvegicus) (UniProt P62483)	-4e-05
COCCCNC(=O)c1c(N)n(-c2cccc(S(N)(=O)=O)c2)c2nc3ccccc3nc12	Voltage-gated potassium channel subunit beta-2 (Rattus norvegicus) (UniProt P62483)	1.8e-09
Cc1csc(NC(=O)CCn2c(=O)oc3ccccc32)n1	Voltage-gated potassium channel subunit beta-2 (Rattus norvegicus) (UniProt P62483)	-4.9e-05
COCCn1c(SCC(=O)N2CCc3ccccc32)nc2c(c1=O)SC(C)C2 (stereo not given)	Voltage-gated potassium channel subunit beta-2 (Rattus norvegicus) (UniProt P62483)	-1.4e-05
Cc1ccc(-c2nn(C)c(=O)c3ccccc23)cc1CN1CCOCC1	Voltage-gated potassium channel subunit beta-2 (Rattus norvegicus) (UniProt P62483)	-3.3e-05

Give me measured NADPH fluorescence slope, please, for this compound: COc1cc(S(=O)(=O)N2CCOCC2)ccc1NC(=O)COC(=O)C12CC3CC(CC(C3)C1)C2 2.4e-06

Using known records, supply NADPH fluorescence slope for CCOc1cccc(/C(O)=C2/C(=O)C(=O)N(CCN3CCOCC3)C2c2cccnc2)c1 (stereo not given) -5e-05

Tell me NADPH fluorescence slope reported for CC(C)c1nc2n[nH]c(N)c2c2c1CCCC2 -8.5e-05

Give the value of NADPH fluorescence slope reported for the following: Cc1cc(C)n(C2CCCCC2OC(=O)c2ccccc2)n1 (stereo not given) 2e-06

Specify NADPH fluorescence slope for CCOc1cccc(N2C(=O)CC(N(CCc3ccc(OC)c(OC)c3)C(=O)CC)C2=O)c1 (stereo not given) and stop. -1.2e-05

====

# assay_method_text: inhibitors of E-selectin induction by TNFa, primary screen, imaging, HUVEC, immunofluorescence, MLSMR starter and 10KST1 sets (AID 487);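 also: signal is fraction of cell area covered by stained E-selectin grains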
# test_context: HUVEC TNFalpha-induced E-selectin immunofluorescence imaging, at 2 µM; active compounds read high
measured_endpoint: inhibition (%)
Write the answer as a number in %, unit excluded.

Illustrative cases are given below, each with its answer.
compound	inhibition [%]
COc1cccc(N2CCN(C(=O)c3ccc(=O)oc3)CC2C)c1 (stereo unspecified)	-2.6
CC(C(=O)N(C)C)N(C#N)c1nc(N(C)C)nc(N(C)C)n1 (stereo unspecified)	7.8
Cc1cc(C)cc(NC(=O)C2CCCN(S(=O)(=O)c3cnc[nH]3)C2)c1 (stereo unspecified)	-30
Cc1ccc(C)c(C(=O)CC2(O)C(=O)N(C)c3ccccc32)c1 (stereo unspecified)	-7
Cc1cc2ccccc2c(=O)n1CC(=O)N(C)c1ccc(F)cc1	-74.2

Identify measured inhibition corresponding to O=C(CN1C(=O)COc2ccccc21)N(Cc1cccnc1)Cc1ccccc1F -6.3

Determine its reported inhibition: CCCSc1nc(N2CCOCC2)c2c(c1C#N)CCCC2 -93.9

Name the recorded inhibition of the item C/C(=N/n1cnnc1)c1cccnc1 in your answer. -130

Give inhibition for the following compound: COc1ccc2[nH]cc(C(=O)CN(C)CCc3ccc(OC)c(OC)c3)c2c1 -59.5

Quote inhibition reported for O=C1C2CC=CCC2C(=O)N1c1ccc(Cc2ccncc2)cc1 (stereo unspecified) please. 29.1

Recall and state the measured inhibition for COc1nnnc2c1sc1nc(N3CCOCC3)c3c(c12)CC(C)(C)OC3 . -92.2
